system: lipoxygenase (Rattus norvegicus, UniProt P12527)
Construct: Polymorphonuclear leucocytes from rats (PMNL) were obtained from the peritoneal space in Wistar rats; endogenous in cells
Sequence (P12527 1-673): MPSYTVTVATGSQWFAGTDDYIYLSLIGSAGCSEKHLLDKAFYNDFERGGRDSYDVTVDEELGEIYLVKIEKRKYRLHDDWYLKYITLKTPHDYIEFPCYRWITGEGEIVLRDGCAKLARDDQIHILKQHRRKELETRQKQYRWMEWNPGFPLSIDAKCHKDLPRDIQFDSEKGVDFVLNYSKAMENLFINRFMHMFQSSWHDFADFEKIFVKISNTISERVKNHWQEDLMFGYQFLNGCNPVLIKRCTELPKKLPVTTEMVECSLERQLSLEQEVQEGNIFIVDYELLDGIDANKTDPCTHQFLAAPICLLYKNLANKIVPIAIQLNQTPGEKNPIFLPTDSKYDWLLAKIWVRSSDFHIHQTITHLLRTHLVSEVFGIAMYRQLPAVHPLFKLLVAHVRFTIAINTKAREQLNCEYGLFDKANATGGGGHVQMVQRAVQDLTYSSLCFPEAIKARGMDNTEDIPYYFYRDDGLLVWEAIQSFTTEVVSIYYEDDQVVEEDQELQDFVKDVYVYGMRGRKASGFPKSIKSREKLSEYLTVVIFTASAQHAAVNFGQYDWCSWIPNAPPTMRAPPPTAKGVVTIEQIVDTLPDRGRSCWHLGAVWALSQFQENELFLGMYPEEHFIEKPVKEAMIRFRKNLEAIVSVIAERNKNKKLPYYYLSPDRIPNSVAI
assay.procedure: LTB4 release from rat polymorphonuclear leucocytes (PMNL) after calcium ionophore A 23187, by HPLC (lipoxygenase inhibition)
Description: The release of LTB4 on polymorphonuclear granulocytes after addition of substances and calcium ionophor was determined by means of HPLC as a measure of the lipoxygenase inhibition. The combined ether phases were washed with 4 ml of water (double distilled), dried while gassing with nitrogen and taken up in 80 μl of methanol. […]

[
  {
    "molecule": "CCOC(=O)C1=CN(CC#N)c2cccnc2S1",
    "system": "lipoxygenase (Rattus norvegicus, UniProt P12527)",
    "unit.of.measurement": "nM",
    "IC50": 2600
  },
  {
    "molecule": "CCOC(=O)C1=CNc2cccnc2S1",
    "system": "lipoxygenase (Rattus norvegicus, UniProt P12527)",
    "unit.of.measurement": "nM",
    "IC50": 460
  },
  {
    "molecule": "COC(=O)C1=CNc2cccnc2S1",
    "system": "lipoxygenase (Rattus norvegicus, UniProt P12527)",
    "unit.of.measurement": "nM",
    "IC50": 5000
  },
  {
    "molecule": "CCCCOC(=O)C1=CNc2cccnc2S1",
    "system": "lipoxygenase (Rattus norvegicus, UniProt P12527)",
    "unit.of.measurement": "nM",
    "IC50": 55
  }
]
